Test system: Rattus norvegicus
Experiment: Activated partial thromboplastin time at 30 min following intravenous administration in rats at a dose 8 mg/kg
Assay type: functional
Residues, ends and D or L forms follow the SMILES beside them.
Quantity Measured: Baseline (%)
Hi! Could you send only the number? It should be in %, unit omitted.

Name the recorded Baseline for CC[C@H](C)[C@H](NC(=O)C1C2CCC(CC2)N1C(=O)[C@H](CCC(=O)O)NC(=O)[C@H](Cc1ccccc1)NC(=O)[C@H](CC(=O)O)NC(=O)CNC(=O)c1ccc(NC(=N)N)cc1)C(=O)N1CCC[C@H]1C(=O)N[C@@H](CCC(=O)O)C(=O)N[C@@H](CCC(=O)O)C(=O)N[C@@H](Cc1ccc(P(=O)(O)O)cc1)C(=O)N[C@@H](CC(C)C)C(=O)N[C@H](CCC(=O)O)C(=O)O (stereo partly specified) .
181

Name the recorded Baseline for CC[C@H](C)[C@H](NC(=O)C1C2CCC(CC2)N1C(=O)[C@H](CCC(=O)O)NC(=O)[C@H](Cc1ccccc1)NC(=O)[C@H](CC(=O)O)NC(=O)CNC(=O)c1ccc(NC(=N)N)cc1)C(=O)N1CCC[C@H]1C(=O)N[C@@H](CCC(=O)O)C(=O)N[C@@H](CCC(=O)O)C(=O)N[C@@H](Cc1ccc(O)cc1P(=O)(O)O)C(=O)N[C@@H](CC(C)C)C(=O)N[C@H](CCC(=O)O)C(=O)O (stereo partly specified) .
164

Name the recorded Baseline for CC[C@H](C)[C@H](NC(=O)C1C2CCC(CC2)N1C(=O)[C@H](CCC(=O)O)NC(=O)[C@H](Cc1ccccc1)NC(=O)[C@H](CC(=O)O)NC(=O)CNC(=O)c1ccc(NC(=N)N)cc1)C(=O)N1CCC[C@H]1C(=O)N[C@@H](CCC(=O)O)C(=O)N[C@@H](CCC(=O)O)C(=O)N[C@@H](Cc1ccc(OP(=O)(O)O)cc1)C(=O)N[C@@H](CC(C)C)C(=O)N[C@H](CCC(=O)O)C(=O)O (stereo partly specified) .
110

Name the recorded Baseline for CC[C@H](C)[C@H](NC(=O)C1C2CCC(CC2)N1C(=O)[C@H](CCC(=O)O)NC(=O)[C@H](Cc1ccccc1)NC(=O)[C@H](CC(=O)O)NC(=O)CNC(=O)c1ccc(NC(=N)N)cc1)C(=O)N1CCC[C@H]1C(=O)N[C@@H](CCC(=O)O)C(=O)N[C@@H](CCC(=O)O)C(=O)N[C@@H](Cc1ccc(O)cc1)C(=O)N[C@@H](CC(C)C)C(=O)N[C@H](CCC(=O)O)C(=O)O (stereo partly specified) .
111

Name the recorded Baseline for CC[C@H](C)[C@H](NC(=O)C1C2CCC(CC2)N1C(=O)[C@H](CCC(=O)O)NC(=O)[C@H](Cc1ccccc1)NC(=O)[C@H](CC(=O)O)NC(=O)CNC(=O)c1ccc(NC(=N)N)cc1)C(=O)N1CCC[C@H]1C(=O)N[C@@H](CCC(=O)O)C(=O)N[C@@H](CCC(=O)O)C(=O)N[C@@H](Cc1ccc(O)cc1)C(=O)N[C@@H](CC(C)C)C(=O)O (stereo partly specified) (HELM PEPTIDE1{[N=C(N)Nc1ccc(C(=O)[*:2])cc1].G.D.F.E.[O=C(C1C2CCC(CC2)N1[*:1])[*:2]].I.P.E.E.Y.L}$$$$V2.0) .
100

Name the recorded Baseline for CC[C@H](C)[C@H](NC(=O)C1C2CCC(CC2)N1C(=O)[C@H](CCC(=O)O)NC(=O)[C@H](Cc1ccccc1)NC(=O)[C@H](CC(=O)O)NC(=O)CNC(=O)c1ccc(NC(=N)N)cc1)C(=O)N1CCC[C@H]1C(=O)N[C@@H](CCC(=O)O)C(=O)N[C@@H](CCC(=O)O)C(=O)N[C@@H](Cc1ccc(CC(=O)O)cc1)C(=O)N[C@@H](CC(C)C)C(=O)N[C@H](CCC(=O)O)C(=O)O (stereo partly specified) .
141
